assay: ovarian cancer cell viability with rucaparib, profiling panel, oncology-focused library, rucaparib conditional (AID 1508598); details: patient-derived ovarian cancer cells, CellTiter-Glo viability, 144 h; at 1.25 µM; OCI-C5x cells; without rucaparib; active compounds read low
What viability was measured for each of the following?
Lab book: enter the figure in %, no units written.

Input line: Can you share its viability? I mean this compound: NC(=O)c1ccc(-c2nc(-c3ccc4c(c3)OCO4)c(-c3ccccn3)[nH]2)cc1
Output line: 153

Input line: Can you share its viability? I mean this compound: CCN(CC)C(=S)SSC(=S)N(CC)CC
Output line: 135

Input line: Can you share its viability? I mean this compound: CC(C)C(=O)Nc1ccc([N+](=O)[O-])c(C(F)(F)F)c1
Output line: 118

Input line: Can you share its viability? I mean this compound: O=c1[nH]cc(F)c(=O)[nH]1
Output line: 123

Input line: Can you share its viability? I mean this compound: CCCCCCNC(=O)n1cc(F)c(=O)[nH]c1=O
Output line: 128

Input line: Can you share its viability? I mean this compound: O=c1[nH]cnc2[nH]ncc12
Output line: 114

Input line: Can you share its viability? I mean this compound: CC1=C(/C=C/C(C)=C/C=C/C(C)=C/C(=O)O)C(C)(C)CCC1
Output line: 115
